system: Staphylococcus aureus; assay: Antimicrobial activity against Staphylococcus aureus harboring APH(2'''') and AAC(6') enzymes; assay type: functional
Collected MIC values appear next to each entry.

cpdSmiles	MIC
NC[C@@H]1CC[C@@H](N)[C@@H](O[C@H]2[C@H](O[C@@H]3O[C@H](CO)[C@@H](O[C@H]4O[C@@H](CN)CC[C@H]4N)[C@H]3O)[C@@H](O)[C@H](N)C[C@@H]2N)O1	> 64 µg/mL
NC[C@H]1CC[C@@H](N)[C@@H](O[C@H]2[C@@H](O)[C@H](O[C@@H]3[C@@H](O)[C@H](N)C[C@H](N)[C@H]3O[C@H]3O[C@H](CO)CC[C@H]3N)O[C@@H]2CO)O1	> 32 µg/mL
NCC[C@H](O)C(=O)N[C@@H]1C[C@H](N)[C@@H](O[C@H]2O[C@H](CO)[C@@H](O)[C@H](O)[C@H]2N)[C@H](O[C@@H]2O[C@H](CO)[C@@H](O[C@H]3O[C@@H](CN)[C@@H](O)[C@H](O)[C@H]3N)[C@H]2O)[C@H]1O	> 32 µg/mL
NCC[C@H](O)C(=O)N[C@@H]1C[C@H](N)[C@@H](O[C@H]2O[C@H](CN)[C@@H](O)[C@H](O)[C@H]2O)[C@H](O)[C@H]1O[C@H]1O[C@H](CO)[C@@H](O)[C@H](N)[C@H]1O	64 µg/mL
